ASSAY OVERVIEW: Toxicity liver stage against HepG2, at 10uM
Assay type: cell-based
Set-up: test concentration 10 uM, cell line HepG2-A16-CD81EGFP
STATED CONDITIONS: human, HepG2-A16-CD81EGFP cells; read-out: INHIBITION
Attribute: cytotoxicity at 10 µM
A number alone suffices; assume %.

>  <COMPOUND>
Cc1ccc(S(=O)(=O)N2CCC(Oc3cccnn3)CC2)c(C)c1

>  <cytotoxicity at 10 µM / %>
3.47

$$$$
>  <COMPOUND>
Cn1cc(N2CCC(Nc3ccc4nccnc4n3)C2=O)cn1 (stereo not drawn)

>  <cytotoxicity at 10 µM / %>
-2.47

$$$$
>  <COMPOUND>
O=C(COCC(=O)N1CCCCCC1)NCc1cccc(Br)c1

>  <cytotoxicity at 10 µM / %>
1.47

$$$$
>  <COMPOUND>
Cc1nc(CN2CCC(N3CCN(C)C3=O)CC2)no1

>  <cytotoxicity at 10 µM / %>
-22

$$$$
>  <COMPOUND>
COc1ccc(F)cc1C(=O)C1CCCN(Cc2cnc(C)s2)C1 (stereo not drawn)

>  <cytotoxicity at 10 µM / %>
6.26

$$$$
>  <COMPOUND>
CC(CNC(=O)CCCn1cncn1)N1CCc2ccccc2C1 (stereo not drawn)

>  <cytotoxicity at 10 µM / %>
-130

$$$$
>  <COMPOUND>
OCCN(Cc1ccncc1)CC1(c2ccc(Cl)cc2)CCCC1

>  <cytotoxicity at 10 µM / %>
13.8

$$$$
>  <COMPOUND>
CCc1nc(C2CCCN2C(=O)c2nc(C)n3ccccc23)no1 (stereo not drawn)

>  <cytotoxicity at 10 µM / %>
1.85

$$$$

Request the reported cytotoxicity at 10 µM associated with COCCC1COC2(CCN(C(=O)C3CCC3)CC2)C1 (stereo not drawn)
8.25

Request the reported cytotoxicity at 10 µM associated with CN(C)CC1(O)CCN(S(=O)(=O)c2cccc(F)c2)C1 (stereo not drawn)
2.36

Request the reported cytotoxicity at 10 µM associated with `COCCn1cc(NC(=O)N(CCC(N)=O)Cc2ccccc2)cn1`
-4.72

Request the reported cytotoxicity at 10 µM associated with COCC1CN(C(=O)c2cccn2C)Cc2ncnn2C1 (stereo not drawn)
-8.97

Request the reported cytotoxicity at 10 µM associated with `Cc1csc(N2CCCN(C(=O)c3c(C)noc3C)CC2)n1`
-10.6

Request the reported cytotoxicity at 10 µM associated with `Cc1cc(NCCS(C)(=O)=O)nc2cc3c(cc12)CCC3`
8.05

Request the reported cytotoxicity at 10 µM associated with `c1ccc(NCc2cn3c(n2)CN(Cc2ccoc2)CC3)nc1`
10.4

Request the reported cytotoxicity at 10 µM associated with `O=C(c1coc(-c2ccccc2)n1)N1CCCCC1`
11.2

* * *

ASSAY OVERVIEW: Toxicity liver stage against HepG2, at 10uM
Type: cell-based
Design: test concentration 10 uM, cell line HepG2-A16-CD81EGFP
STATED CONDITIONS: human, HepG2-A16-CD81EGFP cells; read-out: INHIBITION
OUTCOME MEASURE: cytotoxicity at 10 µM (%)
A number alone suffices; assume %.

>  <COMPOUND>
c1cnc(N2C[C@H]3CCN(Cc4ccncc4)C[C@H]3C2)nc1

>  <cytotoxicity at 10 µM / %>
-103

$$$$
>  <COMPOUND>
CCCn1nc(C(=O)NC2(c3ccc(Cl)cc3)CCCC2)ccc1=O

>  <cytotoxicity at 10 µM / %>
9.46

$$$$
>  <COMPOUND>
Cc1c(C)n2c(SCC(=O)N3CCOCC3)nnc2[nH]c1=O

>  <cytotoxicity at 10 µM / %>
3.26

$$$$

Request the reported cytotoxicity at 10 µM associated with `CCOc1ccccc1-n1c(CNC)n[nH]c1=O`
-2.98

Request the reported cytotoxicity at 10 µM associated with CCOC(=O)c1n[nH]cc1CN1CCOC(Cc2ccc(OC)cc2)C1 (stereo not drawn)
-0.734

Request the reported cytotoxicity at 10 µM associated with `CN(CCNC(=O)c1cnc(-c2ccncc2)nc1)S(C)(=O)=O`
5.23

Request the reported cytotoxicity at 10 µM associated with `CCc1nc(C(=O)N(CC)CC(=O)Nc2cc(Cl)ccc2C)c[nH]1`
8.44

Request the reported cytotoxicity at 10 µM associated with c1ccc(N2CCN(Cc3cnc(C4CCCCO4)nc3)CC2)nc1 (stereo not drawn)
-3

Request the reported cytotoxicity at 10 µM associated with `CCNc1c(C#N)c(=O)n(C)c(=O)n1C`
0.504

Request the reported cytotoxicity at 10 µM associated with O=C(NCc1cn2cccnc2n1)C1CC(=O)N(Cc2cccnc2)C1 (stereo not drawn)
-3.23

Request the reported cytotoxicity at 10 µM associated with Cc1cc(C)c(C(=O)N2CCCC(C(=O)CCc3ccccc3)C2)cn1 (stereo not drawn)
-7.12

* * *

Attribute: cytotoxicity at 10 µM
ASSAY OVERVIEW: Toxicity liver stage against HepG2, at 10uM
Format: cell-based
Parameters: test concentration 10 uM, cell line HepG2-A16-CD81EGFP
STATED CONDITIONS: human, HepG2-A16-CD81EGFP cells; read-out: INHIBITION
A number alone suffices; assume %.

>  <COMPOUND>
Cc1noc(C)c1CN(C)C(=O)c1ccc(C(F)(F)F)nc1

>  <QUANTITATIVE RESULT>
-10

$$$$
>  <COMPOUND>
Cc1nc(C)c(C)c(N(C)CCCc2nccn2C)n1

>  <QUANTITATIVE RESULT>
8.52

$$$$
>  <COMPOUND>
CCn1nc2c(cc1=O)CN(Cc1nc(C)c(C)o1)CC2

>  <QUANTITATIVE RESULT>
-3.59

$$$$
>  <COMPOUND>
COc1cccc2c1OCC(CNc1ccc(C)nn1)C2 (stereo not drawn)

>  <QUANTITATIVE RESULT>
8.62

$$$$
>  <COMPOUND>
COC(=O)C1CCN(C(=O)c2ccc(C)c(NS(C)(=O)=O)c2)CC1

>  <QUANTITATIVE RESULT>
3.98

$$$$
>  <COMPOUND>
Cn1cnc(S(=O)(=O)N2CCO[C@H]3[C@@H](OCC4CC4)CC[C@@H]32)c1

>  <QUANTITATIVE RESULT>
7.74

$$$$

Request the reported cytotoxicity at 10 µM associated with `Cc1nc(NC(=O)c2c(-n3cnnn3)sc3c2CCC3)sc1C`
5.95

Request the reported cytotoxicity at 10 µM associated with `CCc1noc(CN2CCC(c3ccnn3CCO)CC2)n1`
-11

Request the reported cytotoxicity at 10 µM associated with CCOCC1CN(S(=O)(=O)c2cccc(C)c2)Cc2nccn2C1 (stereo not drawn)
-108

Request the reported cytotoxicity at 10 µM associated with `CC[C@@]1(O)CCN(C(=O)c2ccc(-c3ccco3)cc2)C[C@H]1O`
3.75

Request the reported cytotoxicity at 10 µM associated with Cc1ccc(C(C(=O)O)N2CCCN(Cc3ccccn3)CC2)c(F)c1 (stereo not drawn)
-1.62

Request the reported cytotoxicity at 10 µM associated with Cc1csc(C2CCCCN2C(=O)c2cc(Cl)c[nH]2)n1 (stereo not drawn)
-6.73

Request the reported cytotoxicity at 10 µM associated with COc1ccccc1CCNC(=O)C1CCC(Cn2cnnn2)CC1 (stereo not drawn)
1.61

Request the reported cytotoxicity at 10 µM associated with `CN(C)C(=O)c1ccccc1NC(=O)N(C)Cc1ccccc1O`
-1.03

Request the reported cytotoxicity at 10 µM associated with `CS(=O)(=O)N1C[C@@H]2COC[C@@H](CC(=O)N3CCCCO3)[C@@H]2C1`
10.6

Request the reported cytotoxicity at 10 µM associated with `CCOc1cc(CNC(=O)c2cc(-c3ccccn3)no2)ccn1`
1.63

Request the reported cytotoxicity at 10 µM associated with `COc1ncccc1NC(=O)N1CCC(CN2CCOCC2)CC1`
-6.78

Request the reported cytotoxicity at 10 µM associated with `COc1cc(CNCc2c(C(C)C)nn(C)c2N(C)C)ccn1`
0.504

* * *

Attribute: cytotoxicity at 10 µM
ASSAY OVERVIEW: Toxicity liver stage against HepG2, at 10uM
Format: cell-based
Parameters: test concentration 10 uM, cell line HepG2-A16-CD81EGFP
STATED CONDITIONS: human, HepG2-A16-CD81EGFP cells; read-out: INHIBITION
A number alone suffices; assume %.

# annotated cases, reported cytotoxicity at 10 µM shown
>  <COMPOUND>
Cc1nc(C)n(C2CCCN(C(=O)CCCn3ccnc3)C2)n1 (stereo not drawn)

>  <READOUT UNIT>
%

>  <cytotoxicity at 10 µM>
2.24

$$$$
>  <COMPOUND>
c1ccc(-n2ccc(CN3CCCC(Cn4cncn4)C3)n2)cc1 (stereo not drawn)

>  <READOUT UNIT>
%

>  <cytotoxicity at 10 µM>
-16

$$$$
>  <COMPOUND>
CC(C)N1c2sc(-c3ccsc3)nc2CC1C(=O)NC1CC1 (stereo not drawn)

>  <READOUT UNIT>
%

>  <cytotoxicity at 10 µM>
8.67

$$$$
>  <COMPOUND>
NC1(CN2CCOCC2)CCCCC1

>  <READOUT UNIT>
%

>  <cytotoxicity at 10 µM>
1.72

$$$$

Request the reported cytotoxicity at 10 µM associated with `c1coc(-c2noc(CN3CCc4cncnc4C3)n2)c1`
-9.39

Request the reported cytotoxicity at 10 µM associated with `c1cncc(-c2nc(C3CC3)ncc2-c2ccnc(N3CCCC3)n2)c1`
-2.5

Request the reported cytotoxicity at 10 µM associated with `CCCc1ncc(CNC2(c3ccc(Cl)cc3)CC2)cn1`
-31.6
